Could you please report measured Ki for the items listed next?
experiment: Competitive inhibition of Listeria monocytogenes C-terminal His6-tagged NADK1 expressed in Escherichia coli BL21(DE3) assessed as reduction in NADP production using varying levels of NAD as substrate by glucose-6-phosphate dehydrogenase coupled enzyme based spectrophotometric method
State the value with its unit after it.

For the molecule [N-]=[N+]=NC[C@H]1O[C@@H](n2c(SCC(=O)NCCc3nc4ccccc4[nH]3)nc3c(N)ncnc32)[C@H](O)[C@@H]1O , report Ki.
23 µM

For the molecule [N-]=[N+]=NC[C@H]1O[C@@H](n2c(SCC(=O)NCc3cccc(Br)c3)nc3c(N)ncnc32)[C@H](O)[C@@H]1O , report Ki.
25 µM

For the molecule C[C@H]1O[C@@H](n2c(SCC(=O)NCCc3ccc(Cl)c(Cl)c3)nc3c(N)ncnc32)[C@H](O)[C@@H]1O , report Ki.
1.5 µM

For the molecule Nc1ncnc2c1nc(SCC(=O)NCCc1ccc(Cl)c(Cl)c1)n2[C@@H]1O[C@H](CO)[C@@H](O)[C@H]1O , report Ki.
22 µM

---

assay: Competitive inhibition of Listeria monocytogenes C-terminal His6-tagged NADK1 expressed in Escherichia coli BL21(DE3) assessed as reduction in NADP production using varying levels of NAD as substrate by glucose-6-phosphate dehydrogenase coupled enzyme based spectrophotometric method
Could you please report measured pKi for the items listed next?
Here pKi is given on a logarithmic scale as minus log10 of the concentration in mol/L.

For the compound [N-]=[N+]=NC[C@H]1O[C@@H](n2c(SCC(=O)NCCc3cccc(Br)c3)nc3c(N)ncnc32)[C@H](O)[C@@H]1O , report pKi.
6.00

For the compound C#CCNC(=O)CSc1nc2c(N)ncnc2n1[C@@H]1O[C@H](CN=[N+]=[N-])[C@@H](O)[C@H]1O , report pKi.
4.52

For the compound [N-]=[N+]=NC[C@H]1O[C@@H](n2c(SCC(=O)NCCc3cccc(Cl)c3)nc3c(N)ncnc32)[C@H](O)[C@@H]1O , report pKi.
6.12

For the compound CCNC(=O)NC[C@H]1O[C@@H](n2c(SCC(=O)NCCc3ccc(Cl)c(Cl)c3)nc3c(N)ncnc32)[C@H](O)[C@@H]1O , report pKi.
5.52

For the compound [N-]=[N+]=NC[C@H]1O[C@@H](n2c(SCC(=O)NCCc3c[nH]c4ccc(Cl)cc34)nc3c(N)ncnc32)[C@H](O)[C@@H]1O , report pKi.
6.52

For the compound [N-]=[N+]=NC[C@H]1O[C@@H](n2c(SCC(=O)NCCc3ccc4ccccc4c3)nc3c(N)ncnc32)[C@H](O)[C@@H]1O , report pKi.
5.30

For the compound [N-]=[N+]=NC[C@H]1O[C@@H](n2c(SCC(=O)NCCc3ccc(Cl)c(Cl)c3)nc3c(N)ncnc32)[C@H](O)[C@@H]1O , report pKi.
7.00

---

assay: Competitive inhibition of Listeria monocytogenes C-terminal His6-tagged NADK1 expressed in Escherichia coli BL21(DE3) assessed as reduction in NADP production using varying levels of NAD as substrate by glucose-6-phosphate dehydrogenase coupled enzyme based spectrophotometric method
Could you please report measured pKi for the items listed next?
Here pKi is given on a logarithmic scale as minus log10 of the concentration in mol/L.

For the molecule Nc1ncnc2c1nc(SCC(=O)NCCc1c[nH]c3ccccc13)n2[C@@H]1O[C@H](CO)[C@@H](O)[C@H]1O , report pKi.
5.70

For the molecule Cn1cc(CCNC(=O)CSc2nc3c(N)ncnc3n2[C@@H]2O[C@H](CN=[N+]=[N-])[C@@H](O)[C@H]2O)c2ccccc21 , report pKi.
6.40

For the molecule [N-]=[N+]=NC[C@H]1O[C@@H](n2c(SCC(=O)NCCc3ccc(Br)cc3)nc3c(N)ncnc32)[C@H](O)[C@@H]1O , report pKi.
6.30

For the molecule [N-]=[N+]=NC[C@H]1O[C@@H](n2c(SCC(=O)NCCc3ccc(Cl)cc3)nc3c(N)ncnc32)[C@H](O)[C@@H]1O , report pKi.
6.30

For the molecule [N-]=[N+]=NC[C@H]1O[C@@H](n2c(SCC(=O)NCCc3cccc(C(F)(F)F)c3)nc3c(N)ncnc32)[C@H](O)[C@@H]1O , report pKi.
5.19

For the molecule Nc1ncnc2c1nc(SCC(=O)NCCc1ccc(Br)cc1)n2[C@@H]1O[C@H](CO)[C@@H](O)[C@H]1O , report pKi.
4.52

For the molecule Nc1ncnc2c1nc(SCC(=O)NCCc1ccccc1)n2[C@@H]1O[C@H](CO)[C@@H](O)[C@H]1O , report pKi.
3.85

For the molecule Nc1ncnc2c1nc(SCCC(=O)NCCc1cccc(Br)c1)n2[C@@H]1O[C@H](CO)[C@@H](O)[C@H]1O , report pKi.
4.30

For the molecule NC[C@H]1O[C@@H](n2c(SCC(=O)NCCc3ccc(Cl)c(Cl)c3)nc3c(N)ncnc32)[C@H](O)[C@@H]1O , report pKi.
5.70

For the molecule Nc1ncnc2c1nc(SCC(=O)NCCc1cccc(Cl)c1)n2[C@@H]1O[C@H](CO)[C@@H](O)[C@H]1O , report pKi.
4.52

For the molecule [N-]=[N+]=NC[C@H]1O[C@@H](n2c(SCC(=O)NCCCc3ccccc3)nc3c(N)ncnc32)[C@H](O)[C@@H]1O , report pKi.
4.26

For the molecule Nc1ncnc2c1nc(SCC(=O)NCCc1c[nH]c3ccc(Cl)cc13)n2[C@@H]1O[C@H](CO)[C@@H](O)[C@H]1O , report pKi.
6.60

For the molecule Nc1ncnc2c1nc(SCC(=O)NCCc1ccc(Cl)cc1)n2[C@@H]1O[C@H](CO)[C@@H](O)[C@H]1O , report pKi.
4.40

For the molecule NC[C@H]1O[C@@H](n2c(SCC(=O)NCCc3ccc(Br)cc3)nc3c(N)ncnc32)[C@H](O)[C@@H]1O , report pKi.
4.26

For the molecule [N-]=[N+]=NC[C@H]1O[C@@H](n2c(SCC(=O)NCCc3c[nH]c4ccccc34)nc3c(N)ncnc32)[C@H](O)[C@@H]1O , report pKi.
6.30
